log10(IC50): recorded values
Target: human Cot catalytic domain (30-397 amino acids) (Homo sapiens)
Construct: Purified recombinant human Cot catalytic domain (30-397 amino acids) was purchased from Cama Biosciences; purchased Cama Biosciences (so in the source)
Assay: High Throughput Cot Biochemical Assay (KinEASE TR-FRET)
Conditions: Cot KinEASE TR-FRET, 400 μM ATP; read-out: IC50 HTRF
Description: Example 61: High Throughput Cot Biochemical Assay In this assay, Cot-catalyzes the phosphorylation of a XL665-labeled peptide substrate. Europium conjugated phospho-tyrosine specific antibody binds the resulting phosphorylated peptide. […] Purified recombinant human Cot catalytic domain (30-397 amino acids) was purchased from Cama Biosciences. […]
Property measured: log10(IC50) (log10 of the value in nM)

Compound	Experimental value
CCN1CCC(n2cc(C(Nc3ccc4ncc(C#N)c(Nc5ccc(F)c(Cl)c5)c4c3)c3ccc(F)cc3)nn2)CC1 (centres unmarked) [Example 832]	0.95
Cc1c([C@H](Nc2cc(Cl)c3ncc(C#N)c(NCC(C)(C)C)c3c2)c2cn(C3(C(F)(F)F)CC3)nn2)cccc1-n1nccn1	1.28
Cc1c(-c2ccnnc2)cccc1[C@H](Nc1cc(C#N)c2ncc(C#N)c(NCC(C)(C)C)c2c1)c1cn(C2(C(F)(F)F)CC2)nn1	0.30
CS(=O)(=O)N1CCC(n2cc(C(Nc3cc(Cl)c4ncc(C#N)c(Nc5ccc(F)c(Cl)c5)c4c3)c3ccc(F)cc3)nn2)CC1 (centres unmarked)	2.00
N#Cc1cnc2c(Cl)cc(NC(c3ccc(F)cc3)c3cn([C@H]4CCN(C(=O)OCc5ccccc5)C4)nn3)cc2c1Nc1ccc(F)c(Cl)c1 (some centres unmarked)	2.59

---

pIC50: recorded values
molecular target: human Cot catalytic domain (30-397 amino acids) (Homo sapiens, UniProt P41279); construct: Purified recombinant human Cot catalytic domain (30-397 amino acids) was purchased from Cama Biosciences; purchased Cama Biosciences (so in the source); test: High Throughput Cot Biochemical Assay (KinEASE TR-FRET); conditions: Cot biochemical HTRF (KinEASE TR-FRET) assay; read-out: IC50 HTRF
Sequence (P41279 30-397): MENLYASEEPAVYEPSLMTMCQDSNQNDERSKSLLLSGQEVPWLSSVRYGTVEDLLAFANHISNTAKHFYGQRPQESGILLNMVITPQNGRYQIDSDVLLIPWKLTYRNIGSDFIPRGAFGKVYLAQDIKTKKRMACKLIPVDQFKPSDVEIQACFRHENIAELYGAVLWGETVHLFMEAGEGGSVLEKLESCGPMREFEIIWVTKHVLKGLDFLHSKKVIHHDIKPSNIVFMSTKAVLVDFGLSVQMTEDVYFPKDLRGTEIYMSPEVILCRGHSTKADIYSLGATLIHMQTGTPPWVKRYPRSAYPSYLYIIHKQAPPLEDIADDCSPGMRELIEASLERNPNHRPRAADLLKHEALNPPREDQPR
pIC50: −log10 of the molar value.
Property measured: pIC50

Input smiles	Property measured	Experimental value
CC(C)(C)N1CCC(n2cc([C@@H](Nc3cc(Cl)c4ncc(C#N)c(Nc5cccc(Cl)c5F)c4c3)c3ccccc3)nn2)CC1	pIC50	8.15
C[C@H](Nc1c(C#N)cnc2c(Cl)cc(N[C@@H](c3ccc(Cl)cc3)c3cn(C4CCN(C(C)(C)C)CC4)nn3)cc12)c1ccccc1	pIC50	5.55
CC(C)(C)N1CCC(n2cc([C@@H](Nc3cc(Cl)c4ncc(C#N)c(Nc5ccc(OC(F)(F)F)cc5)c4c3)c3ccc(Cl)cc3)nn2)CC1	pIC50	5.67
N#Cc1ccc([C@H](Nc2cc(Cl)c3ncc(C#N)c(Nc4ccc(Cl)c(Cl)c4F)c3c2)c2c[nH]nn2)cc1	pIC50	7.21
CC[C@@H](Nc1c(C#N)cnc2c(Cl)cc(N[C@H](c3cn(C(F)F)nn3)c3cccc(F)c3F)cc12)c1ccccc1	pIC50	7.06
COC[C@@H](C)Nc1c(C#N)cnc2c(Cl)cc(N[C@@H](c3ccccc3)c3cn(C4CCN(C(C)(C)C)CC4)nn3)cc12	pIC50	6.14

---

target: human Cot catalytic domain (30-397 amino acids) (Homo sapiens); construct: Purified recombinant human Cot catalytic domain (30-397 amino acids) was purchased from Cama Biosciences; purchased Cama Biosciences (so in the source); assay: High Throughput Cot Biochemical Assay (KinEASE TR-FRET); conditions: Cot biochemical HTRF (KinEASE TR-FRET) assay; read-out: IC50 HTRF
Could you please mark true for values of IC50 below 30 nM and false for values at or above it?

Compound	Label value
Cc1cc(F)ccc1C(Nc1cc(Cl)c2ncc(C#N)c(Nc3ccc(F)c(Cl)c3)c2c1)c1cn(C2CCNCC2)nn1 (stereo not shown)	true
CC(C)(C)N1CCC(n2cc([C@@H](Nc3cc(Cl)c4ncc(C#N)c(Nc5ccc(F)cc5)c4c3)c3ccc(Cl)cc3)nn2)CC1	false
C[C@@H](Nc1c(C#N)cnc2c(Cl)cc(N[C@@H](c3ccc(Cl)cc3)c3c[nH]nn3)cc12)c1ccccc1	false
CC(C)(C)N1CCC(n2cc([C@@H](Nc3cc(Cl)c4ncc(C#N)c(NCC5CCCCC5)c4c3)c3ccccc3)nn2)CC1	false
CC(C)(C)N1CCC(n2cc([C@@H](Nc3cc(Cl)c4ncc(C#N)c(Nc5ccc(O)c(Cl)c5)c4c3)c3ccc(Cl)cc3)nn2)CC1	false
N#Cc1cnc2c(Cl)cc(N[C@@H](c3ccc(F)cc3)c3c[nH]nn3)cc2c1Nc1ccc(F)c(Cl)c1	true
C[C@H](CNc1c(C#N)cnc2c(Cl)cc(N[C@@H](c3ccc(Cl)cc3)c3cn(C4CCN(C(C)(C)C)CC4)nn3)cc12)c1ccccc1	true

---

system: TNFα production in LPS-stimulated human monocytes; test: Cot Monocyte TNFα Cell Based Assay; details: Homo sapiens, Monocyte, LPS-stimulated human monocytes, TNFα TR-FRET; read-out: EC50 TNF
pEC50: −log10 of the molar value.

Input smiles	pEC50
CC(C)(C)CNc1c(C#N)cnc2c(Cl)cc(N[C@@H](c3ccc(F)cc3)c3cn(C4(c5cccnc5)CC4)nn3)cc12	7.21
[2H][C@](Nc1cc(C#N)c2ncc(C#N)c(NCC(C)(C)C)c2c1)(c1ccc(F)cc1)c1cn(-c2cccnc2)nn1	6.99
Cc1c(-c2ccnnc2)cccc1[C@H](Nc1cc(Cl)c2ncc(C#N)c(NCC(C)(C)C)c2c1)c1cn(C2(C(F)(F)F)CC2)nn1	7.23
CC(C)(C)CNc1c(C#N)cnc2c(C#N)cc(N[C@@H](c3ccc(F)cc3)c3cn(C45CC(C4)C5)nn3)cc12	6.99

---

molecular target: human Cot catalytic domain (30-397 amino acids) (Homo sapiens, UniProt P41279); construct: Purified recombinant human Cot catalytic domain (30-397 amino acids) was purchased from Cama Biosciences; purchased Cama Biosciences (so in the source); test: High Throughput Cot Biochemical Assay (KinEASE TR-FRET); conditions: Cot biochemical HTRF (KinEASE TR-FRET) assay; read-out: IC50 HTRF
Could you please mark Yes for values of IC50 below 40 nM and No for values at or above it?

Molecule	Label value
CC(C)(C)N1CCC(n2cc(C(Nc3cc(Cl)c4ncc(C#N)c(NC5CCC(O)CC5)c4c3)c3ccccc3)nn2)CC1 (stereo not drawn)	No
CC[C@@H](Nc1c(C#N)cnc2c(Cl)cc(N[C@@H](c3cccc(F)c3F)c3cnnn3C(F)F)cc12)c1ccccc1	No
C[C@@H](Nc1c(C#N)cnc2c(Cl)cc(N[C@@H](c3ccc(Cl)cc3)c3cn(C4CCN(C(C)(C)C)CC4)nn3)cc12)c1ccccc1	Yes
CC(C)(C)N1CCC(n2cc([C@@H](Nc3cc(Cl)c4ncc(C#N)c(Nc5cc(F)c(F)cc5F)c4c3)c3ccc(Cl)cc3)nn2)CC1	No
CC(C)(C)N1CCC(n2cc([C@@H](Nc3cc(Cl)c4ncc(C#N)c(Nc5ccc(F)c(Cl)c5)c4c3)c3cccc(C(=O)N4CCC4)c3)nn2)CC1	Yes
CC(C)(C)N1CCC(n2cc([C@@H](Nc3cc(Cl)c4ncc(C#N)c(Nc5ccc(F)c(Cl)c5)c4c3)c3ccccc3)nn2)CC1	Yes

---

IC50: recorded values
target: human Cot catalytic domain (30-397 amino acids) (Homo sapiens, UniProt P41279); construct: Purified recombinant human Cot catalytic domain (30-397 amino acids) was purchased from Cama Biosciences; purchased Cama Biosciences (so in the source); experiment: High Throughput Cot Biochemical Assay (KinEASE TR-FRET); details: Cot KinEASE TR-FRET (HTRF) biochemical assay, 400 μM ATP; read-out: IC50 HTRF
Property measured: IC50 (µM)

Compound	Op	Experimental value
[2H][C@](Nc1ccc2nc(F)c(C#N)c(NCC(C)(C)C)c2c1)(c1ccc(F)cc1)c1cn(C2CC2)nn1	>	10
[2H][C@](Nc1cc(Cl)c2ncc(C#N)c(NNC(C)(C)C)c2c1)(c1ccc(F)cc1)c1cn(C2CC2)nn1	>	10
[2H]C(Nc1cc(Cl)c2ncc(C#N)c(NCC(C)(C)C)c2c1)(c1ccc(F)cc1)c1nnnn1C (centres unmarked)	=	0.154
[2H][C@](Nc1cc(Cl)c2ncc(C#N)c(N[C@H](CC#N)c3ccccc3)c2c1)(c1cccc(C#N)c1)c1cn(C2CC2)nn1	=	0.002
[2H][C@](Nc1cc(Cl)c2ncc(C#N)c(NC3CC3)c2c1)(c1ccc(F)cc1)c1cn(C2CC2)nn1	=	0.296
[2H][C@@](Nc1cc(C#N)c2ncc(C#N)c(NC3CCOCC3(C)C)c2c1)(c1cn(C2CC2)nn1)c1ccccc1Cl (some centres unmarked)	=	0.002
[2H][C@](Nc1cc(C#N)c2ncc(C#N)c(NCC(C)(C)C)c2c1)(c1ccccc1)c1cn(C2CC2)nn1	=	0.002
[2H]C(Nc1cc(Cl)c2ncc(C#N)c(NC3C(C)CCCC3C)c2c1)(c1ccc(F)cc1)c1cn(C2CC2)nn1 (stereo in doubt)	=	1.15
